target: F protein of human metapneumovirus strain JPS03-180 (type A1), on infectious virus (human metapneumovirus, strain JPS03-180 …); experiment: cell-based or functional assay
quantity_measured: IC50, neutralizing activity (hMPV infection of LLC-MK2 cells)
Output should be the measured figure followed by the unit it is expressed in.

Solved entries:
binder	test_value
EV046130 (antibody, human IgG1, lambda, V domains shown) VH: QVQLVESGGGVAQPGRSLRLSCAASGFTLSNYGMHWVRQAPGKGLEWVAVIWYDGRNKYYADSVKGRFTISRDDFKNTLDLQMNSLRAEDTAVYYCARDQHAGITMIEDWGQGTLVTVSS VL: QSALTQPPSASGSPGQSVTISCTGTSSDVGYFKYVSWYQQHPGKAPKLLIYEVSKRPSGVPDRFSGSRSGNTASLTVSGLQADDEADYYCGSYAGNNNIIFGGGTKLTVLG	0.21 mg/L
EV046113 (antibody, human IgG1, kappa, V domains shown) VH: QVQLVESGGGLVRPGGSLRLSCAASGFTFSDYFMTWIRQAPGKGLEWVSYINSIGSVIFYADSVEGRFTVSRDNTMKSLFLQMNSLTAEDTAVYYCARSCRISYGASGGFSCGMDVWGQGTPVTVSS VL: DIQMTQSPSSLSASVGDRVTITCQASQSIRENINWYQQKTGKAPKLLIYDASILETGVPSRFSGSGSGTHFTFTISSLQPEDMATYYCQQYHHLITFGQGTRLDIKR	0.38 mg/L

Exercise: Consider the binder EV046142 (antibody, human IgG1, lambda, V domains shown) VH: QVQLVQSGAEVKKPGSSVRVSCKASGGTFSTYGINWVRQARGQGLEWMGTVIPTFEKTYYAQGFQGRVTIAADGSKNTVYMELRRLTSEDSAIYFCTRFFTPYCSGGSCYLDLWGPGTLVTVSS VL: QSVLTQPPSVSGAPGQSVTISCAGSSSNIGAGYDVHWYQHLPGTAPRLLIYSNTNRPSGVPDRFSGSKSGASASLAITGLQAEDEADYYCQSYDSGVVFGGGTKLTVLR and give its measured IC50, neutralizing activity (hMPV infection of LLC-MK2 cells).
Solution: 0.22 mg/L

Exercise: Consider the binder EV046143 (antibody, human IgG1, kappa, V domains shown) VH: QVQLVQSGAEVQKPGSSVKVSCKTSGDTFNNYALSWVRQAPGQGPEWMGRIIPLVEMANYAQKFQGRVTITADKSTTTIYMELSSLRSEDTAMYYCARDGYQGGFPYFFDSWGQGTLVTVSS VL: EVVLTQSPGTLSLSPGERATLSCRASQSVSNYLAWYQQKPGQAPRLLISAASSRATGIPDRFGGSGSGADFTLTISRLEPEDFAVYYCQQYGFSPGTFGQGTKVEIRR and give its measured IC50, neutralizing activity (hMPV infection of LLC-MK2 cells).
Solution: 0.13 mg/L

Exercise: Consider the binder EV046147 (antibody, human IgG1, lambda, V domains shown) VH: QVQLVQSGAEVKKPGASVKVSCKASGYTFSVYGISWVRQAPGHGLEWMGWISAYNGDRGYAQKVQGRITMTTDTSASTAYMELRSLTSDDTAVYYCATTSSGVPGIYWGQGSLVTVSS VL: SYALVQPPSVSVSPGQTARITCFGPALPKKYAYWYQHKSGQAPMLVIYEDTKRPSGIPQRFSGSTSGATATLTIRGAQVEDEADYYCYSTDSSGHERVFGGGTKLTVLG and give its measured IC50, neutralizing activity (hMPV infection of LLC-MK2 cells).
Solution: 0.31 mg/L
